Ref: patent US12065436B2

# studySystem: bovine cardiac myofibrils (full-length cardiac myosin ATPase in the native sarcomere) (Bos taurus (Bovine), UniProt Q9BE39)
# Sequence (Q9BE39 whole entry): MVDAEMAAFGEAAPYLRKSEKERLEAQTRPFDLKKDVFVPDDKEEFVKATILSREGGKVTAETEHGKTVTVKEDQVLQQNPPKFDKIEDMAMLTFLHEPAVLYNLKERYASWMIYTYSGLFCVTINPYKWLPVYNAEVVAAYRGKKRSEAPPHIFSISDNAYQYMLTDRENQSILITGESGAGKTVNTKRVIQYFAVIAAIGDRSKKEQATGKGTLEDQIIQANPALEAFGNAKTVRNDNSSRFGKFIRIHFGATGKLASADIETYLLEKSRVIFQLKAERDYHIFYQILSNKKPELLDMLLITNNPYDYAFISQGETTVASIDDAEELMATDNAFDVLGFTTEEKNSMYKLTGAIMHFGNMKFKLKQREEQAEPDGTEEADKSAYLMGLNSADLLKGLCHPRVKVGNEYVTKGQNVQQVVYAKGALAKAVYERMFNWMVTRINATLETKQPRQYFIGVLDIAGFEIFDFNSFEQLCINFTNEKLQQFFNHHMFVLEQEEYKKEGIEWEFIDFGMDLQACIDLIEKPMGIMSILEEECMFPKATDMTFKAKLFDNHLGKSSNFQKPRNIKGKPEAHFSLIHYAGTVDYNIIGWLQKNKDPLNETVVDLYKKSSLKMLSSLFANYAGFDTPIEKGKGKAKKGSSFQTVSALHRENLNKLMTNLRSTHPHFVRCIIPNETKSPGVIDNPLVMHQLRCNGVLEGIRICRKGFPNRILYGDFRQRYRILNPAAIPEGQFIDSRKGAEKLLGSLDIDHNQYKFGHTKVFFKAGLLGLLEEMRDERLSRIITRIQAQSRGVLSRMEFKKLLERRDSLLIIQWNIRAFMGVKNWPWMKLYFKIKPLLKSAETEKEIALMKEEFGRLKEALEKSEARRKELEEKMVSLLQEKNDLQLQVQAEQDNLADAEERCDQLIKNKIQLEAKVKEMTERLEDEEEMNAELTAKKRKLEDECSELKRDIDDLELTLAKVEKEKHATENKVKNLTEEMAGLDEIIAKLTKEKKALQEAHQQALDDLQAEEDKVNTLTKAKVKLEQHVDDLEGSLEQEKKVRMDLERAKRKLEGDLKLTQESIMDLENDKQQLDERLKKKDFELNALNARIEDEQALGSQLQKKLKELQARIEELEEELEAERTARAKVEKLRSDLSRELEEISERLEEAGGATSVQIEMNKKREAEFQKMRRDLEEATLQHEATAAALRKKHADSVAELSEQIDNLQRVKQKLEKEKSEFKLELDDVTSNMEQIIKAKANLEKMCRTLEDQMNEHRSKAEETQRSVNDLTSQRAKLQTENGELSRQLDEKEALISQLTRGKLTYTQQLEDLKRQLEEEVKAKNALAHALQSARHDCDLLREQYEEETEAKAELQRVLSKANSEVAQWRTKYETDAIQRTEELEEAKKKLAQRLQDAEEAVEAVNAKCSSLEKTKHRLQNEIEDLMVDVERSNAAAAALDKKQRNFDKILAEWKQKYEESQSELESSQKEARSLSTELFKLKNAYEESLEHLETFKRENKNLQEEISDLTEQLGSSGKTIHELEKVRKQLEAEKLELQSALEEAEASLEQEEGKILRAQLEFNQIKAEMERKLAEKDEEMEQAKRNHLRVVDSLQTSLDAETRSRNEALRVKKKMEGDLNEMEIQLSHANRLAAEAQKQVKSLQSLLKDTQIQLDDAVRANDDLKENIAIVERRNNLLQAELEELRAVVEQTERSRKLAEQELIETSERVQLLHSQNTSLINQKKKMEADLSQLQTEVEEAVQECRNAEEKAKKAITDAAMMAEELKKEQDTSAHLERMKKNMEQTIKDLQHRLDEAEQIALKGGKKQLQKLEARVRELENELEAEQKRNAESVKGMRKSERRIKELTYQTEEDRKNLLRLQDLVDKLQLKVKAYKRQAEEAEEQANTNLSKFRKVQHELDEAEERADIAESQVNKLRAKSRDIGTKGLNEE
# Sequence (P85100 whole entry partner): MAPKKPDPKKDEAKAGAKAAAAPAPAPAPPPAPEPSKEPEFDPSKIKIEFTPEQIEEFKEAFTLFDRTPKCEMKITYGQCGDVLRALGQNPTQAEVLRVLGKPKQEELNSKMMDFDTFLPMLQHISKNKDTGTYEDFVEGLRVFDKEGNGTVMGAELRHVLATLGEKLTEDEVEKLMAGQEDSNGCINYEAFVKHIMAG
# Sequence (Q3SZE5 whole entry partner): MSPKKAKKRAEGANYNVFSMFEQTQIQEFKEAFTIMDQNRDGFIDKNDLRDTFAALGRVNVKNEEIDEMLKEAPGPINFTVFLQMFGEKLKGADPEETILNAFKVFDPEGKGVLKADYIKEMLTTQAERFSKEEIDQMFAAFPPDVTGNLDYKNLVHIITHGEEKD
# procedureText: Skinned bovine cardiac myofibril ATPase assay (PK/LDH-coupled)
# measurementConditions: Ca2+ activating to 75% of maximal rate, read-out: CDMF75 IC50
pIC50: −log10 of the molar value.
Use 5 as the dividing line for pIC50, with the line itself on the yes (1) side and lower values as no (0).

| compound | class |
| --- | --- |
| Cc1cc(C(=O)N[C@@H]2CCc3cc(-c4noc(C)n4)ccc32)n(C)n1 [Compound 106] | yes (1) |
| Cc1c(C(=O)N[C@@H]2CCc3cc(-c4nc(C(F)F)no4)ccc32)cnn1C [Compound 277] | yes (1) |
| Cc1nc(C(=O)NC2CCc3cc(-c4noc(C(F)F)n4)ccc32)c(C)o1 (centres unmarked) [Compound 22] | no (0) |
| Cc1cc(C(=O)N[C@@H]2COc3cc(-c4noc(C)n4)ccc32)n(C)n1 [Compound 156] | yes (1) |
| CCc1nc(-c2ccc3c(c2)CC[C@H]3NC(=O)c2ccncn2)no1 [Compound 630] | yes (1) |
| Cc1nc(-c2ccc3c(c2)OC[C@H]3NC(=O)c2cnn(C)c2)no1 [Compound 211] | yes (1) |
| CCc1nc(-c2ccc3c(c2)OCC[C@H]3NC(=O)c2cnn(C)c2)no1 [Compound 535] | yes (1) |
| Cn1nccc1C(=O)N[C@@H]1CCc2cc(-c3ncccn3)ccc21 [Compound 366] | no (0) |
| CCc1nc(-c2ccc3c(c2)CC[C@H]3NC(=O)c2cccc(C(O)CO)c2)no1 (some centres unmarked) [Compound 700] | yes (1) |
| CCc1nc(-c2ccc3c(c2)CC[C@H]3NC(=O)C2CCC(=O)N(C)C2)no1 (some centres unmarked) [Compound 352] | no (0) |
| [2H]C([2H])([2H])c1noc(-c2ccc3c(c2)CC[C@H]3NC(=O)c2nnn(C)n2)n1 [Compound 272] | yes (1) |
| CC1(C(=O)N[C@@H]2CCc3cc(-c4noc(C5CC5)n4)ccc32)CC1 [Compound 330] | no (0) |
| O=C(NC1CCc2cc(-c3noc(C(F)F)n3)cnc21)c1ccccc1 (centres unmarked) [Compound 94] | no (0) |
| Cc1cc(C(=O)NC2CCc3cc(-c4noc(C)n4)ccc32)ccn1 (centres unmarked) [Compound 3] | yes (1) |
| COCc1nc(-c2ccc3c(c2)OC[C@H]3NC(=O)c2cccc(CO)c2)no1 [Compound 712] | yes (1) |
| O=C(N[C@@H]1CCc2cc(-c3noc(C(F)F)n3)ccc21)C1COC1 [Compound 288] | no (0) |

###

# studySystem: bovine cardiac myofibrils (full-length cardiac myosin ATPase in the native sarcomere) (Bos taurus (Bovine), UniProt Q9BE39)
# procedureText: Skinned bovine cardiac myofibril ATPase assay (PK/LDH-coupled)
# Assay type: biochemical
# measurementConditions: Ca2+ activating to 75% of maximal rate, concentration giving 15% inhibition

| molecule | CDMF75 IC15 / µM |
| --- | --- |
| COCc1nc(-c2ccc3c(c2)CC[C@H]3NC(=O)c2cc(CO)ccc2F)no1 | 6.5 |
| CCc1nc(-c2ccc3c(c2F)CC[C@H]3NC(=O)c2cnn(C)c2)no1 | 0.3 |
| O=C(N[C@@H]1CCc2cc(-c3noc(C(F)F)n3)ccc21)N1CCOCC1 | 9.5 |
| CCc1nc(-c2ccc3c(c2)CCC[C@H]3NC(=O)c2ccnn2C)no1 | 0.4 |
| CCc1nc(-c2ccc3c(c2)CC[C@H]3NC(=O)c2ccc(=O)[nH]c2)no1 [Compound 603] | 0.3 |
| CCc1nc(-c2ccc3c(c2)CC[C@H]3NC(=O)c2nn[nH]n2)no1 | 2.0 |
| Cc1nc(-c2ccc3c(c2)CCC3NC(=O)Nc2cccnn2)no1 (stereo not drawn) | 2.0 |
| Cc1nc(-c2ccc3c(c2)CCC3NC(=O)c2nnn(C)n2)no1 (stereo not drawn) | 1.2 |
| CCc1nc(-c2ccc3c(c2)CC[C@H]3NC(=O)c2cnn(C)c2C)no1 [Compound 570] | 0.4 |
| C=Cc1nc(-c2ccc3c(c2)CC[C@H]3NC(=O)c2cnn(C)c2)no1 | 0.4 |
| [2H]C([2H])([2H])c1nc(-c2ccc3c(c2)CC[C@H]3NC(=O)c2cnn(C)c2C)no1 | 1.0 |
| CCc1nc(-c2ccc3c(c2)CC[C@H]3NC(=O)c2cnccc2C)no1 | 3.5 |
| CCC(=O)N[C@@H]1CCc2cc(-c3noc(CC)n3)ccc21 | 2.7 |
| CCc1nc(-c2ccc3c(c2)CC[C@H]3NC(=O)c2cnn(CC(OC)OC)c2)no1 | 2.6 |
| CCc1nc(-c2ccc3c(c2)CC[C@H]3NC(=O)c2ccn(C)n2)no1 | 2.7 |
| Cc1nc(-c2ccc3c(c2)OC[C@H]3NC(=O)c2oc(C)nc2C)no1 | 1.1 |
| COCc1nc(-c2ccc3c(c2)CC[C@H]3NC(=O)c2oc(C)nc2C)no1 | 1.7 |
| COCc1nc(-c2ccc3c(c2)CC[C@H]3NC(=O)c2cc(C)no2)no1 | 1.7 |
